Tested on: OVCAR-4 ovarian
Assay: NCI-60 one-dose screen, 48 h (100 = growth as untreated, 0 = no growth, -100 = all killed)
Conditions: 10 µM unless noted
Compounds without any hit were thinned out: in the full panel of roughly 83,000, 20% have a hit.
value-type: growth (%)
One number for each entry, in %.

Consider the following illustrative entries.
>>> df
                                   compound  readout_number
0  CN1CCN(Cc2ccc(NC(=O)c3[nH]ncc3Nc3ncnc4sccc34)cc2)CC1            10.2
1  COc1cc(OC)c(/C=C/c2cc[n+](C)c3ccccc23)c(OC)c1            13.6
2  OC(c1cccc(C(F)(F)F)c1)c1cnccc1NC1CCCCCC1 (centres undefined)            52.7

Ask: # return recorded growth for entry O=C1c2ccccc2-c2nccc3cc(Cl)nc1c23
Result: -96.4

----------
Tested on: COLO 205 colon
Test: NCI-60 one-dose screen, 48 h (100 = growth as untreated, 0 = no growth, -100 = all killed)
Details: 10 µM unless noted
Compounds without any hit were thinned out: in the full panel of roughly 83,000, 20% have a hit. Activity calls are given as the source filed them. Rule for the calls: active = growth percent below 10; inactive = the rest.
Provide the reported growth of each item.

Consider the following illustrative entries.
In [3]: df
Out[3]:
                                   molecule  value_type           result
0  C=C1CCC2C3(C)COC(c4ccc(OC)cc4Br)OC3CCC2(C)C1/C=C/C1=CCOC1=O (configuration not stated)      growth  118% (inactive)
1            O=c1cc(-c2ccccc2)[nH]c2ccccc12      growth   5.72% (active)
2  Cc1ccc2c(c1)C(=O)c1c-2c(OCCCN(C)C)nc2ccccc12      growth  -30.6% (active)
3  CCOC(=O)C(Cc1cc(I)c(O)c(I)c1)NC(=O)c1ccccc1 (configuration not stated)      growth  108% (inactive)
4  COc1ccc2c(c1)C(=O)/C(=C/c1cccc(OCC(=O)Nc3nc4c(s3)CCCC4)c1)O2      growth  -3.43% (active)
5  CCCCCCCCCC(=O)Oc1ccc(/C(=C(/C)Cc2cccc(OC)c2)c2ccc(OCCN(C)C)cc2)cc1      growth  118% (inactive)
6  CC(C)[C@@H]1CC[C@]2(C(=O)NCCCCN=C(N)N)CC[C@]3(C)[C@H](CC[C@@H]4[C@@]5(C)CCC(=O)C(C)(C)[C@@H]5CC[C@]43C)[C@@H]12      growth   2.37% (active)
7  CN1CCN(Cc2ccc(NC(=O)c3cncc(C#Cc4cnc(N)c5cccnc45)c3)cc2C(F)(F)F)CC1      growth  -20.5% (active)

Fill in growth for each of the 4 molecules listed.
1. CC1(C)CC(=O)C(c2c(-c3ccccc3)[nH]c3[nH]c(=S)[nH]c(=O)c23)=C(O)C1
2. COc1ccc2nc3cc(Cl)ccc3c(N3CCN(c4ccnc(N5CCN(C)CC5)n4)CC3)c2c1
3. O=[N+]([O-])c1cccc(-c2nc3sccn3c2-c2ccnc(NCCCNS(=O)(=O)c3cccc(F)c3)n2)c1
4. OCC1C2C=CC(C2)C1CO (configuration not stated)

Result:
1. 119% (inactive)
2. -45.3% (active)
3. -2.26% (active)
4. 191% (inactive)
